As shown below, each of these compounds has a reported pIC50 value.
Target: human TRPV3 (Homo sapiens)
Construct: expressed in transfected cells
Experiment: In vitro antagonism of recombinant human TRPV3 activation (FLIPR Tetra calcium assay, 2-APB as agonist)
Format: cell-based
Conditions: HEK293 cells stably expressing human TRPV3; 2-APB 80 μM; range class; read-out: IC50 (reported range)
Procedure: Test compounds were evaluated for ability to antagonize the activation of recombinant human TRPV3 using FLIPR® Tetra cellular screening. […] A double-addition protocol was used. […] Each test compound evaluated was first dissolved in DMSO to prepare a 10 mM stock solution. […] Changes in fluorescence were measured over time using the FLIPR® instrument. The intensity of the fluorescence was captured and digitally transferred to an interfaced computer. […]
pIC50: −log10 of the molar value.

Worked examples, 8 compounds total:
[[record]]
compound = "OC(c1ccccn1)C1(c2nc3ccccc3o2)CCC1 (stereo not shown)"
value_measured = "5.30 to 5.96"

[[record]]
compound = "OC(c1ccccn1)C1(C2CCCCC2)CCC1 (stereo not shown)"
value_measured = "5.30 to 5.96"

[[record]]
compound = "OC1CC(c2ccnc(C(F)(F)F)c2)(C(O)c2ccccn2)C1 (stereo not shown) [Example 305]"
value_measured = "6.30 to 7.30"

[[record]]
compound = "OC(CC1(c2cccc(Cl)c2)CCC1)c1ccccn1 (stereo not shown)"
value_measured = "5.30 to 5.96"

[[record]]
compound = "N[C@H]1CCC[C@H]1[C@@H](O)C1(c2ccc(Cl)c(Cl)c2)CCC1"
value_measured = "5.30 to 5.96"

[[record]]
compound = "O=C1CC(c2cc(C(F)(F)F)ccn2)([C@H](O)c2ccccn2)C1"
value_measured = "5.30 to 5.96"

[[record]]
compound = "NC1CCCC1C(O)C1(c2ccc(C(F)(F)F)cc2)CCC1 (stereo not shown)"
value_measured = "5.30 to 5.96"

[[record]]
compound = "OC(CC1(c2ccc(C(F)(F)F)cc2)CCC1)c1ccccn1 (stereo not shown)"
value_measured = "6.00 to 6.30"


Query: Using the record for CC1(O)CC(c2cncc(C(F)(F)F)c2)([C@H](O)c2ccccn2)C1 (stereo in doubt) , report its pIC50.
Result: 5.30 to 5.96

Query: And then OC(c1ncccn1)C1(c2ccc(OC(F)(F)F)cc2)CCC1 (stereo not shown) , what is it?
Result: 5.30 to 5.96

Query: And then Cc1ccccc1C(C)C1(C(O)c2ccccn2)CCC1 (stereo not shown) , what is it?
Result: 5.30 to 5.96

Query: And then CC1(O)CC(c2ccnc(C(F)(F)F)c2)(C(O)c2ccccn2)C1 (stereo not shown) [Example 302] , what is it?
Result: 6.00 to 6.30

Query: And then OC(C1CCCc2cccnc21)C1(c2ccc(C(F)(F)F)cc2)CCC1 (stereo not shown) , what is it?
Result: 5.30 to 5.96

====

Experiment: In vitro human microsomal stability assay
Type: in vitro ADME
Conditions: human, 0.5 h, 0.5 μM, pH 7.4
Measurement kind: HUMAN MICROSOMAL STABILITY (% REMAINING AFTER 30 MINUTES) (%)

Worked examples, 4 compounds total:
[[record]]
compound = "OC(c1ccccn1)C1(c2ccccc2OC(F)(F)F)CCCO1 (stereo not shown) [Example 96]"
reading_unit = "%"
value_measured = 0.68

[[record]]
compound = "Nc1cccnc1C(O)C1(c2ccc(C(F)(F)F)cc2)CCC1 (stereo not shown)"
reading_unit = "%"
value_measured = 51

[[record]]
compound = "OC(c1ccccn1)C1(c2ccc(Cl)c(Cl)c2)COC1 (stereo not shown)"
reading_unit = "%"
value_measured = 47

[[record]]
compound = "CC(c1ccc(Cl)cc1)C1(C(O)c2ccccn2)CCC1 (stereo not shown)"
reading_unit = "%"
value_measured = 15


[P] OC(c1ccccn1)C1(C2CCC(C(F)(F)F)CC2)CCC1 (stereo not shown)
[Q] Cc1cccc(C2(C(O)c3ccccn3)CCCO2)c1 (stereo not shown)
[R] OC(c1ccccn1)C1(c2ccc(F)c(F)c2)CCCO1 (stereo not shown) [Example 108]
[S] OC(c1ccccn1)C1(c2ccc(OC(F)(F)F)cc2)CC2(C1)OCCO2 (stereo not shown)
[T] OC(c1ccccn1)C1(c2cccc(F)c2)CCCO1 (stereo not shown) [Example 100]
Query: Arrange items by their HUMAN MICROSOMAL STABILITY (% REMAINING AFTER 30 MINUTES) values in increasing order. Write the labels in rank order as requested.
Result: P, R, T, Q, S

====

Experiment: In vitro human microsomal stability assay
Assay type: in vitro ADME
Details: human, 0.5 h, 0.5 μM, pH 7.4
Measurement kind: HUMAN MICROSOMAL STABILITY (% REMAINING AFTER 30 MINUTES) (%)

Worked examples, 2 compounds total:
[[record]]
compound = "O=C1CC(c2cc(C(F)(F)F)ccn2)([C@@H](O)c2ccccn2)C1"
reading_unit = "%"
value_measured = 83

[[record]]
compound = "CON=C1CC(c2ccc(OC(F)(F)F)cc2)([C@H](O)c2ccccn2)C1 (some centres unmarked)"
reading_unit = "%"
value_measured = 61


[I] OC(c1ccccn1)C1(C(c2ccccc2)C(F)(F)F)CCC1 (centres unmarked)
[II] O[C@H](c1ccccn1)C1(c2ccc(OC(F)(F)F)cc2)CC(F)(F)C1
[III] O[C@H](c1ccccn1)C1(c2cc(C(F)(F)F)ccn2)CC(F)(F)C1
Query: Arrange items by their HUMAN MICROSOMAL STABILITY (% REMAINING AFTER 30 MINUTES) values in increasing order. Write the labels in rank order as requested.
Result: III, I, II

====

Assay: In vitro human microsomal stability assay
Type: in vitro ADME
Conditions: human, 0.5 h, 0.5 μM, pH 7.4
Measurement kind: HUMAN MICROSOMAL STABILITY (% REMAINING AFTER 30 MINUTES) (%)

Worked examples, 5 compounds total:
[[record]]
compound = "OC1CC(c2ccc(OC(F)(F)F)cc2)(C(O)c2ccccn2)C1 (stereo not shown) [Example 132]"
reading_unit = "%"
value_measured = 81

[[record]]
compound = "OC(C1CCc2cccnc21)C1(c2ccccc2C(F)(F)F)CCC1 (stereo not shown) [Example 197]"
reading_unit = "%"
value_measured = 0.26

[[record]]
compound = "OC(c1ccccn1)C1(c2nc3ccc(Cl)cc3o2)CCC1 (stereo not shown)"
reading_unit = "%"
value_measured = 57

[[record]]
compound = "OC(CC1(c2cccc(OC(F)(F)F)c2)CCC1)c1ccccn1 (stereo not shown)"
reading_unit = "%"
value_measured = 11

[[record]]
compound = "COC1CC(c2ccc(Cl)c(Cl)c2)(C(O)c2ccccn2)C1 (stereo not shown)"
reading_unit = "%"
value_measured = 42


[A] CC(C)(C)OC(=O)N1CCC(c2ccc(C(F)(F)F)cc2)(C(O)c2ccccn2)CC1 (stereo not shown)
[B] OC(c1ccccn1)C1(c2ccc(F)c(Cl)c2)CC2(C1)OCCO2 (stereo not shown)
Query: Dear colleague, could you let me know whether A or B has the lower recorded HUMAN MICROSOMAL STABILITY (% REMAINING AFTER 30 MINUTES)? Thanks. Indicate which entry you chose by stating its label.
Result: A

====

Molecular target: human TRPV3 (Homo sapiens)
Construct: expressed in transfected cells
Sequence (Q8NET8 1-790): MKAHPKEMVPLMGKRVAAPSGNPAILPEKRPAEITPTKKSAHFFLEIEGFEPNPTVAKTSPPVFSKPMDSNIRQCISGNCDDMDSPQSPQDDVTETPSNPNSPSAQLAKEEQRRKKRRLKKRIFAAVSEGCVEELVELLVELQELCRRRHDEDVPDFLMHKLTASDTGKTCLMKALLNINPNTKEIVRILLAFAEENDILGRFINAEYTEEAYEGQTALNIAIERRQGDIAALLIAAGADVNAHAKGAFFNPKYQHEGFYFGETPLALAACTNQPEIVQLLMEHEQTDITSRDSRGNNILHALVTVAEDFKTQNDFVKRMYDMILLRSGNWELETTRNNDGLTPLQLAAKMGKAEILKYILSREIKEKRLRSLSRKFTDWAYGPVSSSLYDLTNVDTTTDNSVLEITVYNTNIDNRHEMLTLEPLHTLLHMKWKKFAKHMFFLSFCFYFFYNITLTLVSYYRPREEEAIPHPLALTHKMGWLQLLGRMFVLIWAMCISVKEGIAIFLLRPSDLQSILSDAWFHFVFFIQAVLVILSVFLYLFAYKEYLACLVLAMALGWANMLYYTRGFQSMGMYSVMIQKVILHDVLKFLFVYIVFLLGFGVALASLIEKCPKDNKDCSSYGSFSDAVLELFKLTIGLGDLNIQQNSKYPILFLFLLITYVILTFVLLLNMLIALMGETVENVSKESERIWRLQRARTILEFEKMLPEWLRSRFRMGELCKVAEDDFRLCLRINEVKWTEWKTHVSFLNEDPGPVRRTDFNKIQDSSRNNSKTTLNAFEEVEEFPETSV
Assay: In vitro antagonism of recombinant human TRPV3 activation (FLIPR Tetra calcium assay, 2-APB as agonist)
Assay type: cell-based
Settings: HEK293 cells stably expressing human TRPV3; 2-APB 80 μM; range class; read-out: IC50 (reported range)
pIC50: −log10 of the molar value.
Measurement kind: pIC50

Worked examples, 8 molecules total:
[[record]]
molecule = "OC(C1CCCc2cccnc21)C1(c2ccc(Cl)c(Cl)c2)CCC1 (stereo not drawn) [Example 181]"
value_measured = "5.30 to 5.96"

[[record]]
molecule = "CC(c1ccccc1F)C1(C(O)c2ccccn2)CCC1 (stereo not drawn) [Example 48]"
value_measured = "4.70 to 5.29"

[[record]]
molecule = "O[C@@H](c1ccccn1)C1(c2cc(C(F)(F)F)ccn2)CC(F)(F)C1 [Example 125]"
value_measured = "4.70 to 5.29"

[[record]]
molecule = "NC1CCCC1C(O)C1(c2ccc(Cl)c(Cl)c2)CCC1 (stereo not drawn) [Example 215]"
value_measured = "6.00 to 6.30"

[[record]]
molecule = "O[C@H](c1ccccn1)C1(c2cccc(C(F)(F)F)n2)CCC1 [Example 238]"
value_measured = "5.30 to 5.96"

[[record]]
molecule = "CN1CCC(c2cccc(OC(F)(F)F)c2)(C(O)c2ccccn2)CC1 (stereo not drawn) [Example 146]"
value_measured = "4.70 to 5.29"

[[record]]
molecule = "OC(c1ncccn1)C1(c2ccc(Cl)c(Cl)c2)CCC1 (stereo not drawn) [Example 38]"
value_measured = "6.30 to 7.30"

[[record]]
molecule = "OC(c1ccccn1)C1(C2CCOc3ccccc32)CCC1 (stereo not drawn) [Example 57]"
value_measured = "4.70 to 5.29"


Kindly review the next molecule as well.
Query: Using the record for OC(c1ccccn1)C1(c2ccc(OC(F)(F)F)cc2)CC(F)(F)C1 (stereo not drawn) [Example 112] , report its pIC50.
Result: 6.30 to 7.30
